tested on: Wolbachia pipientis; test: Anti-Wolbachia Cell-Based Screen; assay type: functional; design: scale not given: in the data most compounds retested in dose-response had high values; conditions: 5 µM
Screen size: about 48,000 compounds; about 13,000 (27%) showed an effect of 50% or more. The list shows a part of the results.
Reported values of Percent Effect for individual entries
Field format: number, assumed %, no unit text.

{"COMPOUND": "CC1CN(C)CCN1C(=O)NCCCn1ccnc1 (stereo unspecified)", "UNITS_LABEL": "%", "QUANTITATIVE_RESULT": 19.65}

Task: Dear colleague, please send me the reported Percent Effect for CCC(C)(NCC(=O)OC)c1nc(C)cs1 (stereo unspecified) when you can.
Output: 4.251

Task: Give the reported Percent Effect for this compound. `CCC1=N[C@@]2(CC[C@@H]3CN(C(=O)NCC(C)C)C[C@@H]32)C(=O)N1CCOC`
Output: 5.071
